Below: a set of entries, each annotated with reported intrinsic clearance, human liver microsomes.
Respond with the bare value in mL/min/kg.

Examples from the recorded data:
CCCc1cc(C)nc(O)c1CNC(=O)c1cc(-c2ccc(N3CCN(C(C)C)CC3)nc2)cc2c1cnn2C(C)C; 120
Cn1c(SCOCc2ccccc2)nnc1C1CC1; 27.1
N[C@H](Cc1c[nH]c2ccccc12)C(=O)N/N=C/c1ccc2nccnc2c1; 17.2
COC(=O)c1ccc(NC(=O)N(C)Cc2ccccc2CN2CCCC2)cc1; 18.2
c1ccc(-c2ncc(CNc3ncccn3)s2)nc1; 40.5
COc1ccc(C)cc1-c1cccnc1O; 5.37
N#Cc1cccnc1Nc1cnn(Cc2ccccc2)c1; 24.4
C#CCNC(=O)Cc1coc(-c2ccccc2)n1; 26.9

Exercise: Recorded intrinsic clearance, human liver microsomes for CC1CCC(O)(CSc2nncn2C(C)C)CC1 (configuration not stated) , please?
Solution: 6.42

###

Measured Parameter: intrinsic clearance, human liver microsomes (L/h/kg)
Respond with the bare value in L/h/kg.

Examples from the recorded data:
C#C[C@@](C)(CC)NC(=O)c1cc(F)cnc1NC1CC(F)(F)C1; 4.18
CC(=O)NCCCOc1ccc(CN2C[C@H](Oc3cccc(C)c3)[C@@H](O)C2)cc1; 0.727
O=C(c1cccnc1)N1CCCC(c2cccc(-c3cccc(Cl)c3)n2)C1 (centres undefined); 23.8
COC(=O)CCCNC(=O)CN1CCC(C(=O)c2ccc(C)cc2C)CC1; 38.7
CC(C)CCN1CCC(CNC(=O)C2CC=CC2)CC1; 0.752
CNc1ccc(/C=C/c2ccc(OCCOCCOCCF)nc2)cc1; 15.2
CCCN(CCc1cccs1)[C@H]1CCc2c(O)cccc2C1; 5.89
Cc1ccc(NC(=O)C(C)(C)c2ccccc2)nc1; 1.01
O=C(CCn1nnc2ccccc2c1=O)Nc1ccncc1; 0.554
Cc1cc(C#N)cc(N2CCc3c(ncn3CCc3ccccc3)C2)n1; 58.5

Exercise: Recorded intrinsic clearance, human liver microsomes for "COc1cc(CNCCN2CCOCC2)cc(Cl)c1OCc1ccccc1" , please?
Solution: 2.78

Exercise: Recorded intrinsic clearance, human liver microsomes for "CN(CCOCCOc1ccccc1-c1ccccc1)Cc1ccccc1.O=C(O)C(=O)O" , please?
Solution: 13

Exercise: Recorded intrinsic clearance, human liver microsomes for CC(=O)NC1(C(=O)N2CCCN(C3CC3)CC2)CCC(C)CC1 (centres undefined) , please?
Solution: 1.66

Exercise: Recorded intrinsic clearance, human liver microsomes for "CCN(CC)C(=O)CSCc1cncc(F)c1" , please?
Solution: 1.87

Exercise: Recorded intrinsic clearance, human liver microsomes for "CN(CCN1CCOC1=O)C(=O)c1cc2cc(Br)ccc2o1" , please?
Solution: 0.794

Exercise: Recorded intrinsic clearance, human liver microsomes for "CN(CC(=O)NC1(C#N)CCCC1)c1ccccc1" , please?
Solution: 1.22

###

Below: a set of entries, each annotated with reported intrinsic clearance, human liver microsomes.
Respond with the bare value in mL/min/kg.

Examples from the recorded data:
CCCc1nnc(N2CCC3(CCCC3)C2)s1; 86.7
CCCn1ncc2[nH]c(-c3cc(Cn4cncn4)c(C)cc3C)nc21; 51.7
COCCN(Cc1cccs1)Cc1cccc(C)c1O; 124
COc1cc(CN(C)C(=O)Nc2cccc(C)c2C)ccc1O; 15.5
CCc1noc(C2CCC(NCC3CCC(F)(F)CC3)CC2)n1 (configuration not stated); 54.4

Now consider a different compound.
Exercise: Recorded intrinsic clearance, human liver microsomes for "CN(Cc1cccnc1)Cc1ccc(C#N)o1" , please?
Solution: 9.78

###

Measured Parameter: intrinsic clearance, human liver microsomes (mL/min/kg)
Respond with the bare value in mL/min/kg.

Examples from the recorded data:
O=c1c2ccccc2nnn1CCOc1ccc(F)cc1; 26.1
COc1ccc(Cl)cc1NC(=O)CN1CCCN(c2ccc(C(F)(F)F)cn2)CC1; 453
COCCCNc1ncc(-c2cc(C)no2)c(C(C)C)n1; 33.4

Exercise: Recorded intrinsic clearance, human liver microsomes for "CN1CCc2nc(NC(=O)c3cncn3-c3ccccc3)sc2C1" , please?
Solution: 5.11

Exercise: Recorded intrinsic clearance, human liver microsomes for "Cc1ccccc1COC1CN(C(=O)Cn2c(=O)[nH]c3ccccc32)C1" , please?
Solution: 15.3

Exercise: Recorded intrinsic clearance, human liver microsomes for "CCC(C)(C)NC(=O)C1(Cc2ccc(-c3cc(F)ccc3OC)cc2)CCOCC1" , please?
Solution: 700

Exercise: Recorded intrinsic clearance, human liver microsomes for "O=C(NCCc1ccccc1)c1cnccn1" , please?
Solution: 13.5

Exercise: Recorded intrinsic clearance, human liver microsomes for "CC(C)(O)CNc1ncc(-c2ccnc(Nc3ccnc(Cl)c3)n2)c(CC2CC2)n1" , please?
Solution: 23.6

Exercise: Recorded intrinsic clearance, human liver microsomes for "CCOc1cc(CC(=O)N[C@@H](CC(C)C)c2ccccc2N2CCCCC2)ccc1C(=O)O" , please?
Solution: 38.2

Exercise: Recorded intrinsic clearance, human liver microsomes for "CN(Cc1ccccc1Br)C(=O)Nc1ccc(C(=O)N2CCCC2)cc1" , please?
Solution: 14.6

Exercise: Recorded intrinsic clearance, human liver microsomes for "O=C(NC1CCCC1)C(=O)c1ccc2c(c1)CCC2" , please?
Solution: 163

Exercise: Recorded intrinsic clearance, human liver microsomes for "Cc1cccc(OC2CN(C(=O)Cn3c(C)nn(-c4ccccc4)c3=O)C2)c1" , please?
Solution: 13.5

Exercise: Recorded intrinsic clearance, human liver microsomes for "Cc1ccccc1CS(=O)(=O)c1ncc(Cl)c(C(=O)Nc2sc3c(c2C#N)CCCC3)n1" , please?
Solution: 568

Exercise: Recorded intrinsic clearance, human liver microsomes for "Cc1ccc(OCC(=O)Nc2ccncc2)c(C)c1" , please?
Solution: 52.5

Exercise: Recorded intrinsic clearance, human liver microsomes for "Cc1ccc2c(C(=O)N(C)C)cc(-c3cnc(C(C)C)nc3)nc2c1C" , please?
Solution: 16.7

###

Condition Notes: pH 6.8
Lab note: anything with aqueous solubility at or over 40 µg/mL counts as met; the rest go in not met.

Cc1nc(Cl)cc(Nc2cnn(C(C)(C)C)c2)n1; not met
Cc1cccc(-c2nc(CN(Cc3cnn(C)c3)C(C)C)c(C)o2)c1; not met
Cc1cc(C)n(-c2ccc(C(=O)NCc3cccnc3)cc2)n1; met
O=C(CN1CCC(c2ccccc2)CC1)N1CCNC1=O; met

Now consider the entry below.
Exercise: Hello, I need to know if "COc1nn(C)cc1C(=O)Nc1cccc(-c2cnc3n2CCC3)c1" has measured aqueous solubility not below 40 µg/mL. Thanks!
Solution: not met

###

Measured Parameter: intrinsic clearance, rat liver microsomes (mL/min/kg)
Respond with the bare value in mL/min/kg.

Examples from the recorded data:
O=[N+]([O-])c1ccc(S(=O)(=O)Nc2cccc(-c3nc4ccccc4[nH]3)c2)cc1; 993
Cc1nc(C2(NCc3cccc(C#N)c3)CCCC2)no1; 505
CCn1ncc(-c2cc(C(F)F)nc(NCCCOC)n2)c1C; 412
O=C(/C=C\n1cnc(-c2cc(C(F)(F)F)cc(C(F)(F)F)c2)n1)NNc1cnccn1; 14.3

Exercise: Recorded intrinsic clearance, rat liver microsomes for CCCS(=O)(=O)N1CCCC(C(=O)N2CCc3ccccc3C2)C1 (centres undefined) , please?
Solution: 1010

Exercise: Recorded intrinsic clearance, rat liver microsomes for "Cc1noc(C)c1C(=O)N1CCCN(c2ccc(F)cc2)CC1" , please?
Solution: 566

Exercise: Recorded intrinsic clearance, rat liver microsomes for "CCCNC(=O)C1(NCc2cncnc2)CCCCC1" , please?
Solution: 127

Exercise: Recorded intrinsic clearance, rat liver microsomes for "Cn1c(C2CC2)nc2c1CCN(c1ncnc3ccsc13)C2" , please?
Solution: 1090

Exercise: Recorded intrinsic clearance, rat liver microsomes for "Cn1ccnc1-c1noc(NCc2ccccc2)n1" , please?
Solution: 193

Exercise: Recorded intrinsic clearance, rat liver microsomes for "COCCCNc1nnc(-c2ccncc2)s1" , please?
Solution: 84.1

Exercise: Recorded intrinsic clearance, rat liver microsomes for "Fc1cccc(N2CCCC2)c1CN1CCN(Cc2ccon2)CC1" , please?
Solution: 3460

Exercise: Recorded intrinsic clearance, rat liver microsomes for "Cc1cc(NC(=O)[C@H](C)N(C)C)c2ccccc2n1" , please?
Solution: 109

Exercise: Recorded intrinsic clearance, rat liver microsomes for "COc1cccc(-c2ccc(C(=O)N(C)Cc3c(C)nn(C(C)C)c3C)o2)c1" , please?
Solution: 1960

Exercise: Recorded intrinsic clearance, rat liver microsomes for "CCCc1nnc(N2CCC3(CCCC3)C2)s1" , please?
Solution: 2160

Exercise: Recorded intrinsic clearance, rat liver microsomes for "Cc1ccc(NC(=O)c2ccn(C(C)C)n2)cc1N1C(=O)CCC1=O" , please?
Solution: 19.2

Exercise: Recorded intrinsic clearance, rat liver microsomes for "CN(C)c1ccnc(NC(=O)c2cnsn2)c1" , please?
Solution: 280

Exercise: Recorded intrinsic clearance, rat liver microsomes for "CCOC(=O)C1(Cc2cc(-c3ccc(F)cc3)no2)CCN(Cc2ccccc2O)CC1" , please?
Solution: 790

Exercise: Recorded intrinsic clearance, rat liver microsomes for "C=CC[C@]1(O)CC[C@H]2[C@@H]3CCC4=CC(=O)CCC4=C3C=C[C@@]21C" , please?
Solution: 592

Exercise: Recorded intrinsic clearance, rat liver microsomes for "CN(Cc1ccc(N)nc1)c1nc(C(F)(F)F)cs1" , please?
Solution: 116

Exercise: Recorded intrinsic clearance, rat liver microsomes for "Nc1nc2ccccc2n1C1CCCC1" , please?
Solution: 87.6

Exercise: Recorded intrinsic clearance, rat liver microsomes for "O=C(NO)c1cnc(NC2(c3ccccc3)CC2)nc1" , please?
Solution: 17.4
